The origin of these recorded values is patent US8703988B2.

assay: Gelation test (gelator ability in solvents, vial inversion); format: physicochemical; design: key: I = insoluble; P = precipitate; S = solution; VS = viscous solution; G = gel; PG = partial gel; details: solvent CHCl3; concentration in wt % in parentheses in each cell

Molecule	gelator ability (state of sample)
CCCCCCCCCCCCCCCCCCNC(=O)Nc1cc(C(=O)O)cc(C(=O)O)c1 [compound 56]	I (0.1)
CCCC(=O)Nc1cc(C(=O)O)cc(C(=O)O)c1 [compound 45, 5-(butyramido)isophthalic acid]	I (0.1)

----------
assay: Gelation test (gelator ability in solvents, vial inversion); assay type: physicochemical; design: key: I = insoluble; P = precipitate; S = solution; VS = viscous solution; G = gel; PG = partial gel; settings: solvent MeOH; concentration in wt % in parentheses in each cell
Endpoint Name: gelator ability (state of sample)

Sample Smiles	Assay Value
CCCC(=O)Nc1cc(C(=O)O)cc(C(=O)O)c1	S
